- System: Glycine max
// reported Ka per item
Use ×10⁶ /M as the unit, but write only the number.

Cc1ccc(S(=O)(=O)n2cc(C(=O)C(=O)N[C@@H](Cc3c[nH]c4ccccc34)C(=O)NCC(=O)O)c3ccccc32)cc1    3.36

Switching to the query record.
Asked: Quote Glycine max Ka for entry Cc1ccc(S(=O)(=O)n2cc(C(=O)C(=O)NCC(=O)N[C@@H](Cc3c[nH]c4ccccc34)C(=O)O)c3ccccc32)cc1 .
Given back: 2.06

---

- ASSAY_EXPLANATION: Inhibition of soyabean 5-LOX using arachidonic acid as substrate by microplate scanning spectrophotometer analysis
- Parameters: species or system Glycine max
REPORTED_PROPERTY: IC50 (nM)

Illustrative cases are given below, each with its answer.
Cc1ccc(S(=O)(=O)n2cc(C(=O)C(=O)N[C@@H](Cc3c[nH]c4ccccc34)C(=O)O)c3ccccc32)cc1    10
COC(=O)CC[C@@H](NC(=O)[C@@H](Cc1cnc[nH]1)NC(=O)C(=O)c1cn(S(=O)(=O)c2ccc(C)cc2)c2ccccc12)C(=O)OC    3700
COC(=O)CNC(=O)CNC(=O)C(=O)c1cn(S(=O)(=O)c2ccc(C)cc2)c2ccccc12    100
Cc1ccc(S(=O)(=O)n2cc(C(=O)C(=O)NCC(=O)O)c3ccccc32)cc1    8.6
COC(=O)CNC(=O)[C@H](Cc1c[nH]c2ccccc12)NC(=O)C(=O)c1cn(S(=O)(=O)c2ccc(C)cc2)c2ccccc12    800

A. COC(=O)CC[C@H](NC(=O)[C@H](Cc1cnc[nH]1)NC(=O)C(=O)c1cn(S(=O)(=O)c2ccc(C)cc2)c2ccccc12)C(=O)OC
B. COC(=O)[C@H](Cc1c[nH]c2ccccc12)NC(=O)CNC(=O)C(=O)c1cn(S(=O)(=O)c2ccc(C)cc2)c2ccccc12
Asked: Select one. Lower IC50: A or B Use the label to indicate which entry you chose.
Given back: A
